- runDescription: in vitro
- experimentalSetup: PAMPA
- Description: Effective permeability of the compound at 1 mg/ml after 4 hrs by BBB-PAMPA method
reportedProperty: Papp at 4 h, 1 mg/ml

Worked cases, answers included:
[[record]]
smilescode = "O=C(O)/C=C/c1ccc2oc(C(=O)Nc3ccccc3)cc(=O)c2c1"
measurement = "0.9 ×10⁻⁶ cm/s"

[[record]]
smilescode = "CN(C)CCOC(=O)/C=C/c1ccc2occ(C(=O)Nc3ccccc3)c(=O)c2c1"
measurement = "6.4 ×10⁻⁶ cm/s"

[[record]]
smilescode = "Cc1ccc(NC(=O)c2coc3ccc(/C=C/C(=O)OCCN(C)C)cc3c2=O)cc1"
measurement = "9.7 ×10⁻⁶ cm/s"

[[record]]
smilescode = "O=C(O)/C=C/c1ccc2occ(C(=O)Nc3ccccc3)c(=O)c2c1"
measurement = "1.2 ×10⁻⁶ cm/s"

[[record]]
smilescode = "Cc1ccc(NC(=O)c2cc(=O)c3cc(/C=C/C(=O)O)ccc3o2)cc1"
measurement = "1.5 ×10⁻⁶ cm/s"


Would you be so kind as to report Papp at 4 h, 1 mg/ml for each listed record?
1. Cc1ccc(NC(=O)c2cc(=O)c3cc(/C=C/C(=O)OCCN(C)C)ccc3o2)cc1
2. Cc1ccc(NC(=O)c2coc3ccc(/C=C/C(=O)O)cc3c2=O)cc1
3. C[C@]12CCC(=O)C=C1CC[C@@H]1[C@@H]2[C@@H](O)C[C@]2(C=O)[C@@H](C(=O)CO)CC[C@@H]12
4. CN(C)CCOC(=O)/C=C/c1ccc2oc(C(=O)Nc3ccccc3)cc(=O)c2c1

1. 5.2 ×10⁻⁶ cm/s
2. 1.6 ×10⁻⁶ cm/s
3. 1 ×10⁻⁶ cm/s
4. 3.6 ×10⁻⁶ cm/s

* * *

Measurement record for Acetylcholinesterase (Homo sapiens, UniProt P22303); quantity recorded: pIC50.
Answers are plain numbers, as −log10 of the molar value.

[[record]]
smilescode = "CN(C)CCOC(=O)/C=C/c1ccc2oc(C(=O)Nc3ccccc3)cc(=O)c2c1"
measurement = 6.13

[[record]]
smilescode = "COc1ccc(NC(=O)c2cc(=O)c3cc(/C=C/C(=O)O)ccc3o2)cc1"
measurement = 5.13

[[record]]
smilescode = "Cc1ccc(NC(=O)c2cc(=O)c3cc(/C=C/C(=O)OCCN(C)C)ccc3o2)cc1C"
measurement = 6.68

[[record]]
smilescode = "Cc1ccc(NC(=O)c2coc3ccc(/C=C/C(=O)OCCN(C)C)cc3c2=O)cc1"
measurement = 6.01

[[record]]
smilescode = "CN(C)CCOC(=O)/C=C/c1ccc2occ(C(=O)Nc3ccccc3)c(=O)c2c1"
measurement = 5.43


Next, consider the following compound.
Value sought: pIC50, system Acetylcholinesterase (Homo sapiens, UniProt P22303), item CCN(CC)CCOC(=O)/C=C/c1ccc2oc(C(=O)Nc3ccc(Cl)cc3)cc(=O)c2c1 . Result: 6.07

* * *

- systemTested: Amine oxidase [flavin-containing] B (Homo sapiens, UniProt P27338)
- Sequence (P27338 whole entry): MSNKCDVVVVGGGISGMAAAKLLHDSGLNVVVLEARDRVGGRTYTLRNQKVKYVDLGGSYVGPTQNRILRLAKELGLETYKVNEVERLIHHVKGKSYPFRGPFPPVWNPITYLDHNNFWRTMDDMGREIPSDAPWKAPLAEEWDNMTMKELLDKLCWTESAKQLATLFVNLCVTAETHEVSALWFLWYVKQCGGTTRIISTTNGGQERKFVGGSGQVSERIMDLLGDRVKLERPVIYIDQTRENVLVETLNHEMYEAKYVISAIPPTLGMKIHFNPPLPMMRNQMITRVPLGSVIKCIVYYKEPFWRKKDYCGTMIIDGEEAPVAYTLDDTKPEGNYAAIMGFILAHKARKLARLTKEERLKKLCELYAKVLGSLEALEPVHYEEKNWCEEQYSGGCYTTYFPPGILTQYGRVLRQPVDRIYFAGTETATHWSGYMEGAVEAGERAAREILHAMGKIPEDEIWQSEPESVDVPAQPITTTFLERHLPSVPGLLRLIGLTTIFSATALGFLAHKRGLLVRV
- runDescription: biochemical
- Description: Inhibition of human recombinant MAOB expressed in baculovirus infected BTI-TN-5B1- 4 cells using p-tyramine as substrate assessed as decrease in H2O2 production by amplex red-based fluorescence assay
Kindly state IC50 for each of the entries shown.
Numbers only, in µM.

[[record]]
smilescode = "CCN(CC)CCOC(=O)/C=C/c1ccc2occ(C(=O)Nc3cccc(Cl)c3)c(=O)c2c1"
systemtested = "Amine oxidase [flavin-containing] B (Homo sapiens, UniProt P27338)"
reportedproperty = "IC50"
unitsofmeasure = "µM"
measurement = 1.25

[[record]]
smilescode = "CN(C)CCOC(=O)/C=C/c1ccc2occ(C(=O)Nc3ccccc3)c(=O)c2c1"
systemtested = "Amine oxidase [flavin-containing] B (Homo sapiens, UniProt P27338)"
reportedproperty = "IC50"
unitsofmeasure = "µM"
measurement = 0.63

[[record]]
smilescode = "Cc1ccc(NC(=O)c2coc3ccc(/C=C/C(=O)OCCN(C)C)cc3c2=O)cc1"
systemtested = "Amine oxidase [flavin-containing] B (Homo sapiens, UniProt P27338)"
reportedproperty = "IC50"
unitsofmeasure = "µM"
measurement = 2.37

[[record]]
smilescode = "Cc1ccc(NC(=O)c2coc3ccc(/C=C/C(=O)OCCN(C)C)cc3c2=O)cc1C"
systemtested = "Amine oxidase [flavin-containing] B (Homo sapiens, UniProt P27338)"
reportedproperty = "IC50"
unitsofmeasure = "µM"
measurement = 3.65

[[record]]
smilescode = "CN(C)CCOC(=O)/C=C/c1ccc2occ(C(=O)Nc3ccc(Cl)cc3)c(=O)c2c1"
systemtested = "Amine oxidase [flavin-containing] B (Homo sapiens, UniProt P27338)"
reportedproperty = "IC50"
unitsofmeasure = "µM"
measurement = 0.72

[[record]]
smilescode = "CCN(CC)CCOC(=O)/C=C/c1ccc2oc(C(=O)Nc3ccc(C)c(C)c3)cc(=O)c2c1"
systemtested = "Amine oxidase [flavin-containing] B (Homo sapiens, UniProt P27338)"
reportedproperty = "IC50"
unitsofmeasure = "µM"
measurement = 2.54


Would you be so kind as to report IC50 for each listed record?
1. Cc1ccc(NC(=O)c2coc3ccc(/C=C/C(=O)O)cc3c2=O)cc1C
2. O=C(O)/C=C/c1ccc2occ(C(=O)Nc3ccccc3)c(=O)c2c1
3. Cc1ccc(NC(=O)c2cc(=O)c3cc(/C=C/C(=O)OCCN(C)C)ccc3o2)cc1
4. CN(C)CCOC(=O)/C=C/c1ccc2occ(C(=O)Nc3cccc(Cl)c3)c(=O)c2c1
5. CN(C)CCOC(=O)/C=C/c1ccc2oc(C(=O)Nc3ccccc3)cc(=O)c2c1

4.52
4.66
3.81
2.21
2.28

Entry source: ChEMBL document CHEMBL4265951
